Where these numbers come from: ChEMBL document CHEMBL3393020

- run-description: Retardation factor of the compound
- Assay type: physicochemical
metric: Rf

These solved cases illustrate the format of a correct answer.
- molecule: "Fc1cc(/N=C/c2cc3ccccc3nc2Cl)ccc1N1CCOCC1"
  Rf: 0.46
- molecule: "COc1ccc(/C=N/c2ccc(N3CCOCC3)c(F)c2)cc1OC"
  Rf: 0.55
- molecule: "Fc1cc(/N=C/c2c[nH]c3ccccc23)ccc1N1CCOCC1"
  Rf: 0.52
- molecule: "Oc1ccc(/C=N/c2ccc(N3CCOCC3)c(F)c2)cc1O"
  Rf: 0.59
- molecule: "Fc1ccc(/C=N/c2ccc(N3CCOCC3)c(F)c2)cc1"
  Rf: 0.52

I. Fc1cc(/N=C/c2ccccc2)ccc1N1CCOCC1
II. Cc1cccc2cc(/C=N/c3ccc(N4CCOCC4)c(F)c3)c(Cl)nc12
Prompt line: Please indicate which has the smaller reported Rf: I , or II . Reply with the label of the item you choose.
Response line: II
(II: 0.44, I: 0.64)
